Test system: mutant HTT
Test: Mutant HTT assay in lymphoblastoid cells (LBC), Western blot
Type: cell-based, human
Conditions: read-out: LBC IC20 (nM) mHTT, 3 days compound treatment
experimental readout: IC20

Examples from the recorded data:
> print(dat)
                                   molecule  target.under.test          result
1  CC(C)(O)c1ccc(CN[C@@H]2CCCc3c2[nH]c2ccc(Br)nc32)cc1 [Compound 63]         mutant HTT        < 100 nM
2  Nc1ccc(CN[C@@H]2CCCc3c2[nH]c2ccc(Br)cc32)cc1 [Compound 21]         mutant HTT   101 to 300 nM
3  Brc1ccc2[nH]c3c(c2c1)CCC[C@H]3NCc1cccc(I)c1 [Compound 41]         mutant HTT   101 to 300 nM
4  C#Cc1ccc2[nH]c3c(c2c1)CCC[C@H]3NCc1ccccc1 [Compound 5]         mutant HTT        < 100 nM
5  COc1ccc(CN[C@@H]2CCCc3c2[nH]c2ccc(Br)cc32)cc1 [Compound 25]         mutant HTT  301 to 1000 nM
6  OCc1ccc(CN[C@@H]2CCCc3c2[nH]c2ccc(Br)nc32)cc1 [Compound 65]         mutant HTT  301 to 1000 nM
7  OB1OCc2cc(CN[C@@H]3CCCc4c3[nH]c3ccc(Br)cc43)ccc21 [Compound 37]         mutant HTT   101 to 300 nM
8  OB(O)c1cccc(CN[C@@H]2CCCc3c2[nH]c2ccc(Br)cc32)c1 (single isomer, unassigned) [Compound 39]         mutant HTT       > 1000 nM

// batch mode: one IC20 value per listed entry
1. OCc1ccc(CN[C@H]2CCCc3c2[nH]c2ccc(Br)cc32)cc1 [Compound 3]
2. Brc1ccc2[nH]c3c(c2c1)CCC[C@H]3NCc1ccccn1 [Compound 33]
3. Brc1ccc2[nH]c3c(c2c1)CCC[C@H]3NCc1cccnc1 [Compound 32]
4. OC1(c2ccc(CN[C@@H]3CCCc4c3[nH]c3ccc(Br)cc43)cc2)CC1 [Compound 50]
5. C=Cc1ccc2[nH]c3c(c2c1)CCC[C@H]3NCc1ccccc1 [Compound 45]
6. [2H]C([2H])(O)c1ccc(CN[C@@H]2CCCc3c2[nH]c2ccc(Br)cc32)cc1 [Compound 42]
7. N#Cc1ccc(CN[C@@H]2CCCc3c2[nH]c2ccc(Br)cc32)cc1 [Compound 26]
8. OCCOCc1ccc(CN[C@@H]2CCCc3c2[nH]c2ccc(Br)cc32)cc1 (single isomer, unassigned) [Compound 28]

Response given:
1: > 1000 nM; 2: 301 to 1000 nM; 3: < 100 nM; 4: < 100 nM; 5: < 100 nM; 6: < 100 nM; 7: 101 to 300 nM; 8: < 100 nM

Challenge: What measured IC20 goes with C[C@@H](N[C@@H]1CCCc2c1[nH]c1ccc(Br)cc21)c1ccccc1 (single isomer, unassigned) [Compound 13] ?
Response given: 101 to 300 nM

====

Kindly state IC50 for each of the entries shown.
Target: interaction between Supt4h and NGN (subunit of Supt5h) (Homo sapiens, UniProt O00267+P63272)
Assay: Split Gaussia luciferase complementation assay (M2-8 Luciferase)
Details: M2-8 cells

Examples from the recorded data:
> print(dat)
                                   compound         result
1  c1ccc(CN[C@@H]2CCCc3c2[nH]c2ccc(-c4cn[nH]c4)cc32)cc1 [Compound 11]      > 1000 nM
2  OCc1ccc(CN[C@@H]2CCCc3c2[nH]c2ccc(Br)nc32)cc1 [Compound 65]       ≤ 100 nM
3  CN(C)c1ccc(CN[C@@H]2CCCc3c2[nH]c2ccc(Br)cc32)cc1 [Compound 29]  101 to 300 nM

// batch mode: one IC50 value per listed entry
1. OCc1ccc(CN[C@@H]2CCCc3c2[nH]c2ccc(Br)nc32)s1 [Compound 67]
2. O=[N+]([O-])c1ccc(CN[C@@H]2CCCc3c2[nH]c2ccc(Br)cc32)cc1 [Compound 30]
3. COCC(N[C@@H]1CCCc2c1[nH]c1ccc(Br)cc21)c1ccc(C(C)(C)O)cc1 (single isomer, unassigned) [Compound 52]
4. Brc1ccc2[nH]c3c(c2c1)CCC[C@H]3NCc1cccc(I)c1 [Compound 41]

Response given:
≤ 100 nM
101 to 300 nM
≤ 100 nM
≤ 100 nM

Challenge: What measured IC50 goes with CC(C)(O)c1ccc(C(CF)N[C@@H]2CCCc3c2[nH]c2ccc(Br)cc32)cc1 (single isomer, unassigned) [Compound 55] ?
Response given: ≤ 100 nM

====

Kindly state pIC50 for each of the entries shown.
Target: interaction between Supt4h and NGN (subunit of Supt5h) (Homo sapiens, UniProt O00267+P63272)
Experiment: Split Gaussia luciferase complementation assay (M2-8 Luciferase)
Conditions: M2-8 cells
pIC50: −log10 of the molar value.

Examples from the recorded data:
> print(dat)
                                   compound        result
1  OC1(c2ccc(CN[C@@H]3CCCc4c3[nH]c3ccc(Br)nc43)s2)CC1 [Compound 70]        ≥ 7.00
2  COc1ccccc1CN[C@@H]1CCCc2c1[nH]c1ccc(Br)cc21 [Compound 23]  6.00 to 6.52
3  COCc1ccc(CN[C@@H]2CCCc3c2[nH]c2ccc(Br)cc32)cc1 [Compound 27]        ≥ 7.00
4  c1ccc(CN[C@@H]2CCCc3c2[nH]c2ccc(-c4ccccc4)cc32)cc1 [Compound 8]        < 6.00
5  CC(C)(OCCO)c1ccc(CN[C@@H]2CCCc3c2[nH]c2ccc(Br)cc32)cc1 [Compound 56]        ≥ 7.00
6  CC(C)(O)c1ccc(CN[C@@H]2CCCc3c2[nH]c2ccc(Br)nc32)cc1 [Compound 63]        ≥ 7.00

// batch mode: one pIC50 value per listed entry
1. Brc1ccc2[nH]c3c(c2c1)CCC[C@H]3NCc1ccc(N2CCCC2)cc1 [Compound 22]
2. COCC(N[C@@H]1CCCc2c1[nH]c1ccc(Br)cc21)c1ccc(CN2CCN(C(C)=O)CC2)cc1 (stereo partly shown) [Compound 62]

Response given:
1: 6.52 to 7.00; 2: 6.52 to 7.00

====

Kindly state IC50 for each of the entries shown.
Biological target: interaction between Supt4h and NGN (subunit of Supt5h) (Homo sapiens, UniProt O00267+P63272)
Assay: Split Gaussia luciferase complementation assay (M2-8 Luciferase)
Details: M2-8 cells

> print(dat)
                         structure.notation         result
1  OB1OCc2cc(CN[C@@H]3CCCc4c3[nH]c3ccc(Br)cc43)ccc21  101 to 300 nM
2  OCc1cccc(CN[C@@H]2CCCc3c2[nH]c2ccc(Br)cc32)c1       ≤ 100 nM
3  N#Cc1ccc(CN[C@@H]2CCCc3c2[nH]c2ccc(Br)cc32)cc1  101 to 300 nM

Note: attention shifts to another entry.
Challenge: What measured IC50 goes with "CC1(C)OB(c2ccc(CN[C@@H]3CCCc4c3[nH]c3ccc(Br)cc43)cc2)OC1(C)C" ?
Response given: ≤ 100 nM

====

Assay: In vivo pharmacokinetics and brain penetration, single dose, rat
Details: Sprague-Dawley, brain / blood, single dose, averaged over collection time points, read-out: BB_Ratios (brain-to-blood concentration ratio)
Description: B. In Vivo Pharmacokinetics and Brain Penetration The pharmacokinetic assessment was carried out in rodents (e.g. Sprague-Dawley rats or C57BL6 mice) after a single dose administration by IV (e.g., 0.5 mg/kg) or PO (e.g., 5 mg/kg). Biological samples were collected at pre-determined time points, batch-processed, and the test articles were extracted and quantified with LC-MS, utilizing internal standards and separately prepared calibration curves. […]
experimental readout: Kp

Challenge: What measured Kp goes with OCc1ccc(CNC2CCCc3c2[nH]c2ccc(Br)cc32)cc1 (stereo not shown) [Compound 1] ?
Response given: ≥ 1

====

Kindly state IC20 for each of the entries shown.
System: mutant HTT
Assay: Mutant HTT assay in lymphoblastoid cells (LBC), Western blot
Format: cell-based, human
Details: read-out: LBC IC20 (nM) mHTT, 3 days compound treatment

Examples from the recorded data:
> print(dat)
                                   compound         result
1  CC(C)(O)c1ccc(CN[C@@H]2CCCc3c2[nH]c2ccc(Br)cc32)cc1       < 100 nM
2  COC(C)(C)c1ccc(CN[C@@H]2CCCc3c2[nH]c2ccc(Br)cc32)cc1       < 100 nM
3  C=C(C)c1ccc(CN[C@@H]2CCCc3c2[nH]c2ccc(Br)cc32)s1  101 to 300 nM
4  CC1(C)OB(c2ccc(CN[C@@H]3CCCc4c3[nH]c3ccc(Br)cc43)cc2)OC1(C)C  101 to 300 nM
5  CS(=N)(=O)c1ccc(CN[C@@H]2CCCc3c2[nH]c2ccc(Br)cc32)cc1 (some centres unmarked)  101 to 300 nM
6  Oc1ccc(CN[C@@H]2CCCc3c2[nH]c2ccc(Br)cc32)cc1  101 to 300 nM
7  OCc1ccc(CNC2CCCc3c2[nH]c2ccc(Br)cc32)cc1 (centres unmarked)  101 to 300 nM

Note: attention shifts to another entry.
Challenge: What measured IC20 goes with "OB(O)c1ccc(CN[C@@H]2CCCc3c2[nH]c2ccc(Br)cc32)cc1" ?
Response given: 101 to 300 nM

Ref: patent US20220062233A1
